tested.on: recombinant human PAI-1 (Homo sapiens)
Sequence (P05121 24-402): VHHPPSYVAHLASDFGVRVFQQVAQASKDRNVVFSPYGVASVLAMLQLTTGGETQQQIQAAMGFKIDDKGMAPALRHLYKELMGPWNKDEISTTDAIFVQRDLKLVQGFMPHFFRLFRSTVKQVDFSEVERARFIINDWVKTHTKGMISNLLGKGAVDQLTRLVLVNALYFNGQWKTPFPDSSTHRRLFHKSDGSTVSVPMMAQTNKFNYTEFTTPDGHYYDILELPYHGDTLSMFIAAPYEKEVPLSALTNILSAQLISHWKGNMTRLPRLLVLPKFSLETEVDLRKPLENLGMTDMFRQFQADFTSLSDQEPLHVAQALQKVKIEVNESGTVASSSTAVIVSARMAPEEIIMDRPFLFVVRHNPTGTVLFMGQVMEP
assay.remarks: biochemical;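 note: PAI-1 preincubated with compound, then two-chain tPA added, residual tPA activity read with fluorogenic Pyr-Gly-Arg-MCA substrate after 30 min at room temperature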
condition.summary: read-out: Inhibition Rate of PAI-1 Activity (%)
metric: inhibition at 25 µM (%)
Answer format: numeric, % implied, no suffix.

Report inhibition at 25 µM for CN(C(=O)C(=O)O)c1ccc(OCc2ccc(OC(F)(F)F)cc2)c(OCc2ccc(OC(F)(F)F)cc2)c1 tested on recombinant human PAI-1 (Homo sapiens). 87

Report inhibition at 25 µM for CC(C)c1ccc(Oc2ccc(/C=C\C(=O)O)c(Oc3ccc(C(C)C)cc3)c2)cc1 tested on recombinant human PAI-1 (Homo sapiens). 96

Report inhibition at 25 µM for O=C(O)C(=O)N(CCCCc1ccccc1)c1ccc(N2CCOCC2)c(-c2ccc(OC(F)(F)F)cc2)c1 tested on recombinant human PAI-1 (Homo sapiens). 89

Report inhibition at 25 µM for CC(C)(C)c1ccc(COc2ccc(-c3ccc(OC(F)(F)F)cc3)cc2COCC(=O)O)cc1 tested on recombinant human PAI-1 (Homo sapiens). 97
